Measured values drawn from paper PMC9870012 for this set.

# method description: Cell viability assay
# Format: cell-based
# conditions: human, SH-SY5Y cells
parameter measured: viability at 24 h, 30 µM (%)
One number for each entry, in %.

O=C(Cc1c(-c2ccccc2)nn(Cc2ccc(Cl)c(O)c2F)c1-c1ccccc1)NO [21i] :: 79
O=C(CCc1c(-c2ccccc2)nn(Cc2ccc(Cl)c(O)c2F)c1-c1ccccc1)NO :: 98

Please give viability at 24 h, 30 µM for each item listed below.
1. O=C(Cc1c(-c2cc(F)c(O)c(Cl)c2)n[nH]c1-c1ccccc1)NO [14m]
2. O=C(Cc1c(-c2ccccc2)nn(Cc2ccc(C(=O)O)cc2)c1-c1ccccc1)NO [21h]

86
88

Can you share its viability at 24 h, 30 µM? I mean this molecule: COc1cccc(-c2n[nH]c(-c3ccccc3)c2CC(=O)NO)c1 [14d]
84

---

# study system: ADAM17 (Homo sapiens)
# Sequence (P78536 215-824): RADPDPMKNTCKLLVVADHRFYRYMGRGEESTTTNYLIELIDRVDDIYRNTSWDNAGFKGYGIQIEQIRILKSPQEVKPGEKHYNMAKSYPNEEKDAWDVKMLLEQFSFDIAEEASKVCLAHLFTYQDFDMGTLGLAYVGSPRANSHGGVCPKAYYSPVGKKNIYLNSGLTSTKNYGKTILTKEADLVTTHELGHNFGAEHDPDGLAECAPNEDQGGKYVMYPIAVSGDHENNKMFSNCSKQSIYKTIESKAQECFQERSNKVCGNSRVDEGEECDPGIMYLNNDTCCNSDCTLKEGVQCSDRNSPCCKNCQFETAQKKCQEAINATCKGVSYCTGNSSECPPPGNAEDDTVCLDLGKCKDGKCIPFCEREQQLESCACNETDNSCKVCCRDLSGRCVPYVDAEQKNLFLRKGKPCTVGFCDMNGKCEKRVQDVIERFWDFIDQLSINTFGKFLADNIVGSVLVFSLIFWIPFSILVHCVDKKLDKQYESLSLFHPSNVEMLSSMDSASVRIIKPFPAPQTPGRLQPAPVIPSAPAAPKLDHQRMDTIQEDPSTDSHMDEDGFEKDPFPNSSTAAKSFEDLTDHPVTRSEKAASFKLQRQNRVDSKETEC
parameter measured: IC50
Include the unit right after the number.

// known answers, use as guide
O=C(Cc1c(-c2ccccc2)nn(Cc2ccc3c(c2)OCO3)c1-c1ccccc1)NO [21f] :: 2.3 µM
COc1cccc(-c2n[nH]c(-c3ccccc3)c2CC(=O)NO)c1 [14d] :: 11.6 µM
O=C(Cc1c(-c2ccc3c(c2)OCO3)n[nH]c1-c1ccccc1)NO [14f] :: 7.4 µM

Please find the next compound below.
Look up IC50 for this compound: O=C(Cc1c(-c2ccc3c(c2)OCO3)n[nH]c1-c1ccc2c(c1)OCO2)NO [16a]
9.6 µM

---

# study system: human meprin α (Homo sapiens, UniProt Q16819)
# Format: biochemical
# conditions: meprin α over meprin β
The threshold is inclusive: SF: selectivity factor (Ki(app) meprin β/Ki(app) meprin α) of exactly 1 counts as criterion met; values below receive criterion not met.

Cn1nc(-c2ccccc2)c(CC(=O)NO)c1-c1ccccc1 [21a] :: criterion met
O=C(Cc1c(-c2ccc(Cl)c(O)c2F)n[nH]c1-c1ccc(Cl)c(O)c1F)NO [16d] :: criterion met

Does O=C(Cc1c(-c2ccccc2)[nH]nc1[C@H]1CC[C@@H](C(=O)O)CC1)NO [14t] have a reported SF: selectivity factor (Ki(app) meprin β/Ki(app) meprin α) of at least 1?
criterion met

Kindly determine if SF: selectivity factor (Ki(app) meprin β/Ki(app) meprin α) recorded for O=C(Cc1c(-c2cccc(C(=O)O)c2)[nH]nc1[C@H]1CC[C@@H](C(=O)O)CC1)NO [16m] is above or exactly 1.
criterion not met

---

# method description: Cell viability assay
# Assay type: cell-based
# conditions: human, Hep-G2 cells
parameter measured: viability at 24 h, 30 µM (%)
One number for each entry, in %.

Known viability at 24 h, 30 µM results, listed for orientation:
COc1cccc(-c2n[nH]c(-c3ccccc3)c2CC(=O)NO)c1 [14d] :: 104
O=C(Cc1c(-c2ccccc2)nn(Cc2ccc3c(c2)OCO3)c1-c1ccccc1)NO [21f] :: 103
COc1ccc(-c2n[nH]c(-c3ccccc3)c2CC(=O)NO)cc1OC [14g] :: 99

Value sought for every listed compound: viability at 24 h, 30 µM.
1. O=C(Cc1c(-c2ccccc2)nn(Cc2ccc(C(=O)O)cc2)c1-c1ccccc1)NO [21h]
2. O=C(Cc1c(-c2ccc3c(c2)OCO3)n[nH]c1-c1ccccc1)NO [14f]

[103, 96]

---

# study system: UniProtKB P78536
# method description: Off-target metalloprotease inhibition, ADAM17
# Assay type: biochemical
# conditions: read-out: Residual activity ADAM17
parameter measured: remaining activity at 10 µM
The number alone won't do; follow it with the unit.

Previously resolved entries follow.
COc1ccc(-c2n[nH]c(-c3ccccc3)c2CC(=O)NO)cc1OC [14g] :: 65%
O=C(Cc1c(-c2ccc3c(c2)OCO3)n[nH]c1-c1ccccc1)NO [14f] :: 51%
O=C(Cc1c(-c2ccccc2)nn(Cc2cccc(C(=O)O)c2)c1-c1ccccc1)NO [21g] :: 84%

Give me remaining activity at 10 µM for each of these molecules, listed below.
1. O=C(Cc1c(-c2cccc(C(=O)O)c2)n[nH]c1-c1cc(F)c(O)c(Cl)c1)NO [16j]
2. COc1cccc(-c2n[nH]c(-c3ccccc3)c2CC(=O)NO)c1 [14d]

["99%", "52%"]

State recorded remaining activity at 10 µM for all listed molecules.
1. O=C(Cc1c(-c2ccccc2)nn(Cc2ccc(C(=O)O)cc2)c1-c1ccccc1)NO [21h]
2. O=C(CCc1c(-c2ccccc2)nn(Cc2ccc(Cl)c(O)c2F)c1-c1ccccc1)NO [compound 22]
3. O=C(Cc1c(-c2ccccc2)nn(Cc2ccc3c(c2)OCO3)c1-c1ccccc1)NO [21f]
4. O=C(Cc1c(-c2ccccc2)nn(Cc2ccc(Cl)c(O)c2F)c1-c1ccccc1)NO [21i]
5. O=C(Cc1c(-c2ccc3c(c2)OCO3)n[nH]c1-c1ccc2c(c1)OCO2)NO [16a]

1. 67%
2. 90%
3. 21%
4. 72%
5. 57%

Entry O=C(Cc1c(-c2cc(F)c(O)c(Cl)c2)n[nH]c1-c1ccccc1)NO [14m] has what remaining activity at 10 µM?
68%

---

Target sequence: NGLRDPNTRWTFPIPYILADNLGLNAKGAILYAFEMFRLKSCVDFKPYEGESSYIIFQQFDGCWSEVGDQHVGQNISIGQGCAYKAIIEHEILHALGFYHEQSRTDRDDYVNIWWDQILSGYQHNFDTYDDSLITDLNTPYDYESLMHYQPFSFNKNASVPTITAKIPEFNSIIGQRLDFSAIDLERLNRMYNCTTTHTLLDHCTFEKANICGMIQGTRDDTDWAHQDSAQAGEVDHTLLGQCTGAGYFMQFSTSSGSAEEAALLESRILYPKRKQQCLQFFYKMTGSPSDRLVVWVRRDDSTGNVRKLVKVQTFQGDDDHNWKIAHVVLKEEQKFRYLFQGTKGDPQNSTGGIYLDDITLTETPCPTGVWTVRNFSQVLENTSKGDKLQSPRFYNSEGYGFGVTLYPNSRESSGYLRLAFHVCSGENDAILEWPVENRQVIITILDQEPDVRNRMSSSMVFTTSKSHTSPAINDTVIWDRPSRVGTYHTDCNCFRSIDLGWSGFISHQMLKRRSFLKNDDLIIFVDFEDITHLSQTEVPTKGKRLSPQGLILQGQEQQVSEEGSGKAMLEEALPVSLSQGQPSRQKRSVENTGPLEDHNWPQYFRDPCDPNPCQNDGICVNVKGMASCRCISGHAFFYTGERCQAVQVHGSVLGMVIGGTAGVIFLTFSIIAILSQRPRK
Mark MET only when Ki stays strictly below 2 nM. Values equal to the cut-off are NOT MET.

Some solved entries appear below for comparison.
O=C(Cc1c(-c2cc(F)c(O)c(Cl)c2)n[nH]c1-c1ccccc1)NO [14m] :: MET
COc1ccc(-c2n[nH]c(-c3ccccc3)c2CC(=O)NO)cc1OC [14g] :: MET

Strictly below 2 nM in Ki? O=C(Cc1c(C2CCCC(C(=O)O)C2)n[nH]c1-c1ccccc1)NO (centres unmarked) [14r]
MET

Regarding O=C(Cc1c(-c2ccccc2)nn(-c2cccc(C(=O)O)c2)c1-c1ccccc1)NO [21c] , kindly confirm whether its Ki is beneath 2 nM.
NOT MET

Say whether its Ki is strictly beneath 2 nM. Entry: O=C(Cc1c(-c2ccc(Cl)c(O)c2F)n[nH]c1-c1ccccc1)NO [14l]
NOT MET

Find out if reported Ki for O=C(Cc1c(-c2ccccc2)nn(Cc2cccc(C(=O)O)c2)c1-c1ccccc1)NO [21g] is less than 2 nM
MET

Criterion: Ki strictly below 2 nM. Is it met by O=C(Cc1c(-c2c[nH]nc2C(F)(F)F)n[nH]c1-c1ccccc1)NO [14o] ?
MET

Take the compound O=C(Cc1c(-c2cccc(C(=O)O)c2)n[nH]c1-c1ccccc1)NO [14j] and say whether its Ki is less than 2 nM.
NOT MET

Bench note: check whether O=C(Cc1c(-c2cccc(C(=O)O)c2)n[nH]c1-c1ccc(Cl)c(O)c1F)NO [16i] shows Ki below 2 nM
NOT MET

Report whether reported Ki is lower than 2 nM (strictly) for O=C(Cc1c(-c2ccccc2)nn(-c2ccccc2)c1-c1ccccc1)NO [21b]
NOT MET

Is the reported Ki for O=C(Cc1c(-c2cccc(C(=O)O)c2)[nH]nc1[C@H]1CC[C@@H](C(=O)O)CC1)NO [16m] strictly below 2 nM?
NOT MET

---

# study system: ADAM10 (Homo sapiens)
# Sequence (O14672 214-748): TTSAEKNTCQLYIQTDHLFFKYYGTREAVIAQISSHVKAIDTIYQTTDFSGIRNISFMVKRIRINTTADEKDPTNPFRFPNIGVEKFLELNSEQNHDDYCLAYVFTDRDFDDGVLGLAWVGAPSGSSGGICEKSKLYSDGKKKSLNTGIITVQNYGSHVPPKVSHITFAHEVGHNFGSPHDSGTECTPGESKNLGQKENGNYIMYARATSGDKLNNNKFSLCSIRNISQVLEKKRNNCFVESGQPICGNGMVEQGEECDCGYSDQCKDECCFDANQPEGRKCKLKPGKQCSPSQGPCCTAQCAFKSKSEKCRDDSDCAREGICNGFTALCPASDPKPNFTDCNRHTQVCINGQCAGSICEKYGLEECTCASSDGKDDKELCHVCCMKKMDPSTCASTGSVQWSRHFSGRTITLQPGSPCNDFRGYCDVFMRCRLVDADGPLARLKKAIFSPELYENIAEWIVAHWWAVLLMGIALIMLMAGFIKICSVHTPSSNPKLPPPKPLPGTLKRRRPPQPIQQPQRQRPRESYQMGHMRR
# method description: Off-target metalloprotease inhibition, ADAM10
# Format: biochemical
# conditions: read-out: Residual activity ADAM10
parameter measured: remaining activity at 10 µM (%)
One number for each entry, in %.

O=C(CCc1c(-c2ccccc2)nn(Cc2ccc(Cl)c(O)c2F)c1-c1ccccc1)NO [compound 22] :: 117

# per-item lookup of remaining activity at 10 µM; items listed below
1. O=C(Cc1c(-c2ccccc2)nn(Cc2cccc(C(=O)O)c2)c1-c1ccccc1)NO [21g]
2. COc1ccc(-c2n[nH]c(-c3ccccc3)c2CC(=O)NO)cc1OC [14g]
3. O=C(Cc1c(-c2ccccc2)nn(Cc2ccc(C(=O)O)cc2)c1-c1ccccc1)NO [21h]
4. O=C(Cc1c(-c2ccc3c(c2)OCO3)n[nH]c1-c1ccc2c(c1)OCO2)NO [16a]

92
87
91
62

Look up remaining activity at 10 µM: O=C(Cc1c(-c2cc(F)c(O)c(Cl)c2)n[nH]c1-c1ccccc1)NO [14m]
104
